B1: FCHO1 (parent)
chain: FTSSPSPFSSSSPENVEDSGLDSP

# Variants of: B1
# MEASUREMENT_NOTES: protein stability index of a GFP-peptide fusion (GPS, HEK-293T) (PSI 1-6); higher = more stable;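 also: lentivirally expressed fusions sorted by FACS into six bins by GFP to DsRed ratio, PSI derived from sequencing read proportions per bin multiplied by bin number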
# STUDY_CONDITIONS: c terminus: a fixed tail appended
Outcome label depends on protein stability index relative to 3: at/above gives criterion met, below gives criterion not met.

>>> class_name("S3V")
"criterion not met"
>>> class_name("F8A")
"criterion met"
>>> class_name("P7V")
"criterion not met"
>>> class_name("F1R")
"criterion met"
>>> class_name("V16F")
"criterion not met"
>>> class_name("F8N")
"criterion met"
>>> class_name("D22E")
"criterion not met"
>>> class_name("S6Y")
"criterion not met"

Is protein stability index for D18P at or above 3?
criterion not met

Is protein stability index for E17P at or above 3?
criterion not met

Is protein stability index for P13L at or above 3?
criterion not met
